Values were extracted from paper PMC8739347.

Test system: Vero E6 cells
Assay: Cell viability assay (MTT)
Assay type: cell-based
Conditions: Vero E6, 3 days, in parallel with Alpha antiviral assay; 5-ALA concentration
measured endpoint: CC50

NCC(=O)CCC(=O)O > 2000 µM

###

System: Vero E6 cells
Test: Cell viability assay (MTT)
Type: cell-based
Details: Vero E6, 3 days, in parallel with Beta antiviral assay; 5-ALA concentration
measured endpoint: CC50

NCC(=O)CCC(=O)O > 2 mM
